Target: Calcium/calmodulin-dependent protein kinase type II subunit gamma (Homo sapiens) (UniProt Q13555)
Sequence (Q13555 whole entry): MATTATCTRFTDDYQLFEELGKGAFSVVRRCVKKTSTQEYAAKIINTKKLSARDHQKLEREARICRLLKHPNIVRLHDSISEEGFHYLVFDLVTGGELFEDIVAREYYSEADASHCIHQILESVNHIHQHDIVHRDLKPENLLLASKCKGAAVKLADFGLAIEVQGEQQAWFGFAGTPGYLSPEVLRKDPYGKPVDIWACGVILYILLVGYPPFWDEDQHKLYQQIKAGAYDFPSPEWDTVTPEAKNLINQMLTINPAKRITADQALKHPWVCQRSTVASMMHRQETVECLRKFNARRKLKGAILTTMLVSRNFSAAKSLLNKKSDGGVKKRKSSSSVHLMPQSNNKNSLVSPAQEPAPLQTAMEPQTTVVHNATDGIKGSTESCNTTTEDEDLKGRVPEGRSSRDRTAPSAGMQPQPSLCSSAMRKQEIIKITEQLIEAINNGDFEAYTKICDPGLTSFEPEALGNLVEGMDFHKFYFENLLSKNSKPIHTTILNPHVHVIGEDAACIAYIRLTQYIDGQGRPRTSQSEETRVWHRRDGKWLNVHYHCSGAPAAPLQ
Conditions: at 1 µM
Cut-off 90% on residual activity, inclusive. At or above means T; below means F.

Study these solved cases before continuing.
>>> df
                                chem_smiles  assigned_class
0  COc1ccc(S(=O)(=O)N(CCO)c2ccccc2CN(C)C/C=C/c2ccc(Cl)cc2)cc1               T
1  CO[C@@H]1[C@H](N(C)C(=O)c2ccccc2)C[C@H]2O[C@]1(C)n1c3ccccc3c3c4c(c5c6ccccc6n2c5c31)C(=O)NC4               F
2  Nc1n[nH]c2nnc(-c3c(-c4ccccc4)nn4ccccc34)cc12               T
3       CCOc1cc2ncnc(Nc3cccc(Br)c3)c2cc1OCC               F
4            Cc1nc(-c2ccccc2)c(-c2ccncc2)o1               T

I'd appreciate it if you could say whether "O=C1NC(=O)c2c1c1c3ccccc3[nH]c1c1[nH]c3cc(Br)ccc3c21" has residual activity at least equal to 90%. F

Confirm if residual activity reported for the compound "O=c1c2ccccc2[nH]c(=S)n1CCN1CCC(=C(c2ccc(F)cc2)c2ccc(F)cc2)CC1" is 90% or above. T

Check the entry "O=C(Nc1cccc(Nc2cc(Nc3cccc(C(F)(F)F)c3)ncn2)c1)C1CC1" : does residual activity equal or exceed 90%? T

Can "COc1ccc(C(=O)Nc2sc3c(c2C(N)=O)CCCC3)cc1OC" be said to have residual activity at or above 90%? F

###

Molecular target: Aurora kinase C (Homo sapiens) (UniProt Q9UQB9)
Sequence (whole entry): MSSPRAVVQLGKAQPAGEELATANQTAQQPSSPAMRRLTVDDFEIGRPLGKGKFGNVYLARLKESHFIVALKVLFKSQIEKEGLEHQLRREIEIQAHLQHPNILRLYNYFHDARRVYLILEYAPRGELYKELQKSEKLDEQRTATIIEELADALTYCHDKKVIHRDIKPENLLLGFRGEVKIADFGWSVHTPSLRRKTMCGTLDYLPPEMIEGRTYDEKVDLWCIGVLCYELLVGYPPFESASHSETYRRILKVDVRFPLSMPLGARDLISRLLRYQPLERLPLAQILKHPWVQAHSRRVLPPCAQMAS
Settings: at 10 µM
result_type: residual activity (%)
Answers are plain numbers, in %.

>>> print(df.to_string())
                    chem_smiles        result_type  reported_value
0  Oc1c2ccccc2c2c3c(cccc13)N=N2  residual activity               4

// input: 6 compounds below; output: residual activity for each
1. COc1cc2ncnc(N3CCN(C(=O)Nc4ccc(Oc5ccccc5)cc4)CC3)c2cc1OC
2. Nc1n[nH]c2nnc(-c3c(-c4ccccc4)nn4ccccc34)cc12
3. COc1ccc(CNc2nc(N(CCO)CCO)nc3c2ncn3C(C)C)cc1
4. COc1cc2ncnc(Nc3ccc(NC(=O)c4ccccc4)cc3)c2cc1OC
5. O=C1NC(=O)c2c1c1c3ccccc3[nH]c1c1[nH]c3cc(Br)ccc3c21
6. CC[n+]1c(/C=C/N(C)c2ccccc2)n(-c2ccccc2)c2ccc(-c3nc4ccccc4s3)cc21

[25, 66, 85, 4, 59, 93]

Here are 4 compounds. What values of residual activity were reported for them?
1. CC(C)n1cnc2/c(=N/c3cccc(Cl)c3)nc(NCCO)[nH]c21
2. Cc1nc(-c2ccccc2)c(-c2ccncc2)o1
3. Oc1ccc(-c2nc(-c3ccc(F)cc3)c(-c3ccncc3)[nH]2)cc1
4. O=c1cc(-c2cccc3c2Sc2ccccc2S3)oc(N2CCOCC2)c1

[52, 81, 95, 92]

# batch: return residual activity for each of the 3 compounds below
1. Cc1nc2cc3nc(-c4cccs4)cnc3cc2n1C
2. COc1ccc(S(=O)(=O)N(CCO)c2ccccc2CN(C)C/C=C/c2ccc(Cl)cc2)cc1
3. COc1cccc(-c2cc(=O)c3ccccc3o2)c1N

42
88
94

The measured values listed here are drawn from ChEMBL document CHEMBL2218924.
